// data source = ChEMBL document CHEMBL5543097

- Tested on: Streptococcus pneumoniae
- testMethodNotes: Antibacterial activity against erythromycin-resistant Streptococcus pneumoniae SPN19-14 assessed as inhibition of visible bacterial growth incubated for 18 hrs by broth microdilution method
- Type: functional
Kindly state MIC for each of the entries shown.
Give bare numbers, in µg/mL.

Challenge: Give reported MIC value for CC[C@H]1OC(=O)[C@@](C)(F)C(=O)[C@H](C)[C@@H](O[C@@H]2O[C@H](C)C[C@H](N(C)C)[C@H]2O)[C@](C)(OC)C[C@@H](C)C(=O)[C@H](C)[C@H]2N(CCCOC(=O)Nc3cc(C)cc(C)c3)C(=O)O[C@]12C
Response given: 1

Challenge: Give reported MIC value for CC[C@H]1OC(=O)[C@@](C)(F)C(=O)[C@H](C)[C@@H](O[C@@H]2O[C@H](C)C[C@H](N(C)C)[C@H]2O)[C@](C)(OC)C[C@@H](C)C(=O)[C@H](C)[C@H]2N(CCCOC(=O)Nc3ccc4c(c3)CCO4)C(=O)O[C@]12C
Response given: 0.06

Challenge: Give reported MIC value for CC[C@H]1OC(=O)[C@H](C)C(=O)[C@H](C)[C@@H](O[C@@H]2O[C@H](C)C[C@H](N(C)C)[C@H]2O)[C@](C)(OC)C[C@@H](C)C(=O)[C@H](C)[C@H]2N(CCCOC(=O)Nc3ccc(C(F)(F)F)cc3)C(=O)O[C@]12C
Response given: 0.125

Below is a list of compounds. For each, state its recorded MIC.
1. CC[C@H]1OC(=O)[C@@](C)(F)C(=O)[C@H](C)[C@@H](O[C@@H]2O[C@H](C)C[C@H](N(C)C)[C@H]2O)[C@](C)(OC)C[C@@H](C)C(=O)[C@H](C)[C@H]2N(CCCOC(=O)Nc3cccc(Cl)c3)C(=O)O[C@]12C
2. CC[C@H]1OC(=O)[C@@](C)(F)C(=O)[C@H](C)[C@@H](O[C@@H]2O[C@H](C)C[C@H](N(C)C)[C@H]2O)[C@](C)(OC)C[C@@H](C)C(=O)[C@H](C)[C@H]2N(CCCOC(=O)Nc3ccc(Cl)cc3)C(=O)O[C@]12C
3. CC[C@H]1OC(=O)[C@@](C)(F)C(=O)[C@H](C)[C@@H](O[C@@H]2O[C@H](C)C[C@H](N(C)C)[C@H]2O)[C@](C)(OC)C[C@@H](C)C(=O)[C@H](C)[C@H]2N(CCCOC(=O)Nc3ccc4sccc4c3)C(=O)O[C@]12C
4. CC[C@H]1OC(=O)[C@@](C)(F)C(=O)[C@H](C)[C@@H](O[C@@H]2O[C@H](C)C[C@H](N(C)C)[C@H]2O)[C@](C)(OC)C[C@@H](C)C(=O)[C@H](C)[C@H]2N(CCCOC(=O)Nc3ccccc3Cl)C(=O)O[C@]12C
5. CC[C@H]1OC(=O)[C@H](C)[C@@H](O[C@H]2C[C@@](C)(OC)[C@@H](O)[C@H](C)O2)[C@H](C)[C@@H](O[C@@H]2O[C@H](C)C[C@H](N(C)C)[C@H]2O)[C@](C)(O)C[C@@H](C)CN(C)[C@H](C)[C@@H](O)[C@]1(C)O

Response given:
1. 0.125
2. 0.125
3. 0.03
4. 0.25
5. 4
